Hello, the source for this data is patent US20180177842A1, in case you need it.

Examples of binders with documented RAMPO Score follow.
# Measured On: T1, P3028 (VFDEFKPLVEEPQNLIK, SEQ ID NO: 185), His-tagged (human)
# T1 construct: Synthetic fragment of human serum albumin (positions 397-413); used in solution as His-tagged peptide PGE73; also called PGE73; not shown: His-tag
# T1 peptide: VFDEFKPLVEEPQNLIK
# Procedure Details: PEPSCAN ELISA; peptide on chip, His-P3028 added;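 note: peroxidase color development with ABTS and H2O2 substrate, OD405 imaged by CCD camera with image processing and taken as raw values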
Reported Endpoint: RAMPO Score (rampo units)

KKLDTFFVKLSLFTEY [KKLDTFFVKLSLFTEY (SEQ ID NO: 393)] ... 311
KKLATFFVKLSLFTER [KKLATFFVKLSLFTER (SEQ ID NO: 298)] ... 494
KKSDTFFVKLSLFTER [KKSDTFFVKLSLFTER (SEQ ID NO: 295)] ... 393
KKLDTFFVKLSLFTQR [KKLDTFFVKLSLFTQR (SEQ ID NO: 450)] ... 344
KELDTFFVKLSLFTER [KELDTFFVKLSLFTER (SEQ ID NO: 441)] ... 349
KKLDEFFVKLSLFTER [KKLDEFFVKLSLFTER (SEQ ID NO: 456)] ... 341
KKLDTFFVKGSLFTER [KKLDTFFVKGSLFTER (SEQ ID NO: 334)] ... 495
